Molecular target: UniProt:P0AEU0
Test: biochemical
Settings: KD fitted to SAXS χlin. curves, DESY, 4s exposure, HisBP 10 µM

compound: N[C@@H](Cc1c[nH]cn1)C(=O)O [His, histidine]
Kd: 4400 nM
--
compound: NCCCC[C@H](N)C(=O)O [Lys, lysine]
Kd: 460 nM

----------
Target: histidine-binding protein (HisBP) (Escherichia coli)
Sequence (P0AEU0 23-260): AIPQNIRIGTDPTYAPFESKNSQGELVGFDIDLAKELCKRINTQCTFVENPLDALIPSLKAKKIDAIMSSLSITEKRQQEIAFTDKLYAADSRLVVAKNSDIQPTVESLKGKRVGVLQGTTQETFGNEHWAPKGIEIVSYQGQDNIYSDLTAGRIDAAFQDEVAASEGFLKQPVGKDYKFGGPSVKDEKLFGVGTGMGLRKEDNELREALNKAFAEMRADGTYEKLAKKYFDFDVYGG
Assay: biochemical
Settings: KD fitted to SAXS Rg curves, ESRF, 5s exposure, HisBP 38 µM
readout.kind: Kd

structure.smiles: N=C(N)NCCC[C@H](N)C(=O)O
readout.kind: Kd
measured: 2.6 µM

structure.smiles: N[C@@H](Cc1c[nH]cn1)C(=O)O
readout.kind: Kd
measured: 0.16 µM
